# assay text: Cytotoxicity against mouse RAW264.7 cells assessed as decrease cell viability at 50 ug/ml measured after 48 hrs by MTT assay
# Assay type: cell-based
# experimental context: at 50 µg/mL, read-out: INH
met means recorded cytotoxicity at 48 h, 50 ug/ml is 30% or above; not met means it is below 30%.

For orientation, consider the following solved cases.
smiles repr | class assignment
Brc1ccc(Nc2nc(N/N=C/c3ccccc3)ns2)cc1 | not met
Cc1ccc(/C=N/Nc2nsc(Nc3ccc(I)cc3)n2)cc1 | not met

Query block: Check if cytotoxicity at 48 h, 50 ug/ml >= 30% (inclusive). Item: Cc1ccc(/C=N/Nc2nsc(Nc3ccc(Cl)cc3Cl)n2)cc1
Result block: met

Query block: Check if cytotoxicity at 48 h, 50 ug/ml >= 30% (inclusive). Item: COc1ccc(Nc2nc(N/N=C/c3ccccc3)ns2)cc1
Result block: not met

Query block: Check if cytotoxicity at 48 h, 50 ug/ml >= 30% (inclusive). Item: Cc1ccc(Nc2nc(N/N=C/c3ccccc3)ns2)cc1
Result block: met

---

# test target: Enoyl-[acyl-carrier-protein] reductase [NADH] (Mycobacterium tuberculosis) (UniProt P9WGR1)
# Sequence (P9WGR1 whole entry): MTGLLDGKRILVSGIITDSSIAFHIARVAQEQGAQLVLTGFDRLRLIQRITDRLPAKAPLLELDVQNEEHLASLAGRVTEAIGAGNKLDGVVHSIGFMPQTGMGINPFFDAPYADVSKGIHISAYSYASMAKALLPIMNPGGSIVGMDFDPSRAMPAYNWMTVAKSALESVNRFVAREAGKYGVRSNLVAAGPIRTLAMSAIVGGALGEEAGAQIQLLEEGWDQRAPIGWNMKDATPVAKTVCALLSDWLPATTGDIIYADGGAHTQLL
# assay text: Inhibition of wild type InhA in Mycobacterium tuberculosis H37Rv using trans-2-dodecenoyl-coenzyme A as substrate at 5 uM
measure name: inhibition (%)
One number for each entry, in %.

Worked examples, 3 compounds total:
smiles repr | inhibition (%)
Brc1ccc(Nc2nc(N/N=C/c3ccccc3)ns2)cc1 | 39
Cc1ccc(/C=N/Nc2nsc(Nc3ccc(C(F)(F)F)cc3)n2)cc1 | 35
Cc1ccc(Nc2nc(N/N=C/c3ccccc3)ns2)cc1 | 48

Please supply inhibition for each of the following items, keeping them in order.
1. Cc1ccc(/C=N/Nc2nsc(Nc3ccc(Cl)cc3Cl)n2)cc1
2. Cc1ccc(/C=N/Nc2nsc(Nc3ccc(F)cc3)n2)cc1

Result block:
48
26

// data source = ChEMBL document CHEMBL4765250
